The values you see were collected from PubChem BioAssay (NCI).

- Test system: MDA-MB-468 breast
- Assay name: NCI tumour cell line growth inhibition, 48 h
Quantity kind: TGI

Log: MDA-MB-468 breast, molecule Clc1cccc(Cc2cn3cc(-c4ccccc4)nc3s2)c1 , TGI = > 100000 nM

Log: MDA-MB-468 breast, molecule CCNCCNc1cc(C2CCCC2)c(C#N)c2nc3ccccc3n12 , TGI = 3670 nM

Log: MDA-MB-468 breast, molecule COc1ccc2c(c1)N(CCO)C1=C(C(=O)OC1)C2c1cccc(Br)c1 (centres undefined) , TGI = 128 nM

Log: MDA-MB-468 breast, molecule Cc1ccc(S(=O)(=O)c2nc(-c3ccccc3)oc2S(=O)(=O)CC(=O)N2CCCC2)cc1 , TGI = 1970 nM
